Origin of values: PubChem BioAssay (NCI)

Test system: MALME-3M melanoma
Test: NCI-60 one-dose screen, 48 h (100 = growth as untreated, 0 = no growth, -100 = all killed)
Details: 10 µM unless noted
Experimental: Cells are grown in 96 well plates and exposed to the test compound for 48 hours. Compounds are tested at a single concentration, which is 10^-5 M for most compounds. The reported endpoint is percent growth (GI% or GIPRCNT), where numbers from 0 - 100% represent growth inhibition, and numbers from -100% - 0 represent cell death. For example, a value of 40 represents 60% growth inhibition. A value of 0 means no net growth occurred over the course of the experiment. […]
Compounds without any hit were thinned out: in the full panel of roughly 83,000, 20% have a hit.
assay metric: growth (%)
Give the value, in units of %, as a plain number.

Exam item: Sample `O=C(N/N=C/c1c[nH]c2ccccc12)Nc1ccc(F)c(Cl)c1` — what was its growth?
Marked response: 56.3

Exam item: Sample `COc1cc(/C=N/NC(=O)c2ccc(OCc3nc4ccc(Cl)cc4[nH]3)cc2)cc(OC)c1OC` — what was its growth?
Marked response: 14.1

Exam item: Sample `O=C(Cc1c(-c2ccccc2[N+](=O)[O-])n(-c2ncnc3c2c(-c2ccccc2)c(-c2ccccc2)n3Cc2ccccc2)[nH]c1=O)c1ccc(Cl)c(Cl)c1` — what was its growth?
Marked response: -12.6

Exam item: Sample `COc1ccc2[nH]c(=O)c(CSc3ccccc3Nc3nccc(-c4ccc(Cl)cc4)n3)cc2c1` — what was its growth?
Marked response: 32.1

Exam item: Sample `Clc1ccc(-c2nc3c4c(-c5ccccc5)c(-c5ccccc5)n(Cc5ccccc5)c4ncn3n2)cc1` — what was its growth?
Marked response: 4.59

Exam item: Sample `CC(=O)Nc1ccc(S(=O)(=O)Nc2ccc(-c3ccc4c(c3)NC(=O)/C4=C\c3ccc[nH]3)cc2)cc1` — what was its growth?
Marked response: 92.5

Exam item: Sample `CC(C)(C)OC(=O)N1CCC2(CC1)Oc1ccccc1[C@H]1CC(c3ccc(Br)cc3)=NN12` — what was its growth?
Marked response: 90

Exam item: Sample `O=C(Cn1c(-c2ccccc2)nc2ccccc21)N=Nc1c(O)[nH]c2ccc(Cl)cc12` — what was its growth?
Marked response: 5.8

Exam item: Sample `Cn1cc(Nc2ncnc(-c3ccc(N4CCCC4)c(C#N)c3)n2)cn1` — what was its growth?
Marked response: 74.8

Exam item: Sample O=C(c1ccc(O)cc1)C1[C@H](c2ccc(Cl)cc2)[C@@H](c2ccccc2)NC12C(=O)Nc1ccccc12 (stereo partly drawn) — what was its growth?
Marked response: -40.2

Exam item: Sample `CCN1CCN(Cc2ccc(C(=O)Nc3cccc(Nc4ccc5c(OC)cccc5n4)c3)cc2C(F)(F)F)CC1` — what was its growth?
Marked response: -94.8

Exam item: Sample `N/C(=N\c1nc2ccccc2s1)NC(=O)Nc1ccccc1[N+](=O)[O-]` — what was its growth?
Marked response: 44.6

Exam item: Sample `Nc1nn2c(-c3cc4cc(Br)ccc4oc3=O)ccnc2c1N=Nc1ccccc1` — what was its growth?
Marked response: 26.2

Exam item: Sample O=S(=O)(c1nc(-c2ccc(Br)cc2)oc1-c1ccc(Cl)cc1)N1CCCC(O)C1 (stereo not drawn) — what was its growth?
Marked response: 74.8

Exam item: Sample `O=C(Nc1ccc(-c2ccc3c(c2)NC(=O)/C3=C\c2ccc[nH]2)cc1)Nc1cccc(Cl)c1` — what was its growth?
Marked response: 7.96

Exam item: Sample `O=C1N/C(=N\c2nccs2)S/C1=C\c1ccc([N+](=O)[O-])cc1` — what was its growth?
Marked response: 28.4

Exam item: Sample `CC(C)(C)OC(=O)N1C/C(=C\c2ccc(F)cc2)C(=O)/C(=C/c2ccc(F)cc2)C1` — what was its growth?
Marked response: -75.5

Exam item: Sample `Cn1cc(-c2cc(N)n3nc(-c4c[nH]c5ccc(Cl)cc45)cc3n2)c2cccnc21` — what was its growth?
Marked response: -92.3
